// reported LC retention time per item
# assay_details: HILIC, Waters ACQUITY UPLC BEH Amide, 100 × 2.1 mm, 1.7 µm; A: water + 0.125% formic acid + 10 mM ammonium formate; B: 5% water + 95% acetonitrile + 0.125% formic acid + 10 mM ammonium formate; gradient (min/%B) 0/100 2/100 7.7/70 9.5/40 10.25/30 12.75/100 17/100
# particulars: stereoisomer not certain
Supply the numeric figure in min, leaving out any unit text.

Previously resolved entries follow.
CC(=O)OCC(=O)NCCCOc1cccc(CN2CCCCC2)c1; 3.01
OCC1OC(OC2C(CO)OC(O)C(O)C2O)C(O)C(O)C1O (stereo not drawn); 8.75

--- query ---
CCNC(C)Cc1ccc2c(c1)OCO2 (stereo not drawn) yielded LC retention time of 2.94

* * *

# assay_details: HILIC, Waters ACQUITY UPLC BEH Amide, 100 × 2.1 mm, 1.7 µm; A: water + 0.125% formic acid + 10 mM ammonium formate; B: 5% water + 95% acetonitrile + 0.125% formic acid + 10 mM ammonium formate; gradient (min/%B) 0/100 2/100 7.7/70 9.5/40 10.25/30 12.75/100 17/100
# particulars: stereoisomer not certain
Kind request: treat 8 min as inclusive, so LC retention time at 8 min or higher is met, anything lower is not met.

Here are 3 molecules together with their reported answers.
COc1ccc2c(c1)C13CCCCC1C(C2)N(C)CC3 (stereo not drawn) [Dextromethorphan]; not met
CC(=O)NC(CO)C(=O)O (stereo not drawn) [N-Acetylserine]; not met
NCCP(=O)(O)O [2-Aminoethylphosphonic acid]; met

*Q* Does the molecule c1c[nH]cn1 [Imidazole] have recorded LC retention time that is 8 min or more?
*A* not met

*Q* Does the molecule OC1CCCCC1O (stereo not drawn) [1,2-Cyclohexanediol] have recorded LC retention time that is 8 min or more?
*A* not met

*Q* Does the molecule CC(O)CC(=O)OC(CC(=O)[O-])C[N+](C)(C)C (stereo not drawn) [3-Hydroxybutyrylcarnitine] have recorded LC retention time that is 8 min or more?
*A* not met

*Q* Does the molecule O=CC=Cc1ccccc1 [Cinnamaldehyde] have recorded LC retention time that is 8 min or more?
*A* met

*Q* Does the molecule CC(=O)CCCCn1c(=O)c2c(ncn2C)n(C)c1=O [Pentoxifylline] have recorded LC retention time that is 8 min or more?
*A* not met

* * *

# assay_details: HILIC, Waters ACQUITY UPLC BEH Amide, 100 × 2.1 mm, 1.7 µm; A: water + 0.125% formic acid + 10 mM ammonium formate; B: 5% water + 95% acetonitrile + 0.125% formic acid + 10 mM ammonium formate; gradient (min/%B) 0/100 2/100 7.7/70 9.5/40 10.25/30 12.75/100 17/100
# particulars: stereoisomer not certain
Labels assigned by LC retention time range: low interval (below 2 min), middle interval (2 min to below 5 min), high interval (5 min or more)

Here are 5 compounds together with their reported answers.
CC(C)=CCNc1ncnc2c1ncn2C1OC(CO)C(O)C1O (stereo not drawn); low interval
C=Cc1ccccc1; high interval
NC(=O)N1c2ccccc2C=Cc2ccccc21 [Carbamazepine]; low interval
CCN(CC)C(=O)C1(c2ccccc2)CC1CN (stereo not drawn); middle interval
COc1ccc2[nH]cc(C3=CCNCC3)c2c1; middle interval

*Q* Which class holds O=C(O)CCc1ccccc1 [Hydrocinnamic acid] ?
*A* high interval

*Q* Which class holds CCOC(=O)OC1(C(=O)OCCl)CCC2C3CCC4=CC(=O)C=CC4(C)C3C(O)CC21C (stereo not drawn) [Loteprednol Etabonate] ?
*A* low interval

*Q* Which class holds CCNC(C)Cc1cccc(C(F)(F)F)c1 (stereo not drawn) ?
*A* middle interval

*Q* Which class holds "CC(C)N=c1cc2n(-c3ccc(Cl)cc3)c3ccccc3nc-2cc1Nc1ccc(Cl)cc1" ?
*A* low interval

*Q* Which class holds "Nc1[nH]c(=O)ncc1F" ?
*A* middle interval

*Q* Which class holds "CCN(CC)CCOC(=O)C(O)(c1ccccc1)c1ccccc1" ?
*A* middle interval
